Data provenance is ChEMBL document CHEMBL1687761.

# Tested on: Escherichia coli
# protocol text: Antimicrobial activity against Escherichia coli XL1-Blue harboring pBC-SK plasmid by broth microdilution method
# Type: functional
Exercise: state measured MIC for each of the molecules provided.
Answers are plain numbers, in µg/mL.

structure_notation=CO/N=C(\C(=O)N[C@@H]1C(=O)N2C(C(=O)O)=C(COC(N)=O)CS[C@H]12)c1ccco1 result_units=µg/mL recorded_value=8
structure_notation=CO/N=C(\C(=O)N[C@@H]1C(=O)N2C(C(=O)O)=C(COC(C)=O)CS[C@H]12)c1csc(N)n1 result_units=µg/mL recorded_value=0.12
structure_notation=CO[C@@]1(NC(=O)Cc2cccs2)C(=O)N2C(C(=O)O)=C(COC(N)=O)CS[C@@H]21 result_units=µg/mL recorded_value=8

Name the reported MIC value associated with the molecule CCN1CCN(C(=O)N[C@@H](C(=O)N[C@@H]2C(=O)N3[C@@H]2SC(C)(C)[C@@H]3C(=O)O)c2ccccc2)C(=O)C1=O
0.5
